Experiment: in vitro
Conditions: mouse, L929 cells, Cell viability (Fig. S2e), L929 (48h), XQ2 0.23 μM
Square brackets hold non-standard residues; d marks the D form. Peptide text beside a SMILES is read from it.
observed.property: viability at 48 h, 0.23 µM

Enquiry: Could you share which viability at 48 h, 0.23 µM value was measured for CC(C)C[C@@H]1NC(=O)[C@H](CCCNC(=N)N)NC(=O)[C@H](C(C)C)NC(=O)[C@@H]2CCCN2C(=O)[C@@H](Cc2ccccc2)NC(=O)[C@H](CC(C)C)NC(=O)[C@H](CCCNC(=N)N)NC(=O)[C@H](C(C)C)NC(=O)[C@H](C)NC(=O)[C@@H](Cc2ccccc2)NC1=O [XQ2, Cyclo (LfAVRLfPVR)] (cyclo(L[dF]AVRL[dF]PVR)) ?
Return: 108%

---

Test: in vitro
Conditions: mouse, L929 cells, Cell viability (Fig. S2e), L929 (48h), XQ2 1.88 μM
Experimental: Cell viability was measured by cell counting kit-8 (TargetMol) according to the manufacturer’s instructions. […] (e-g) THP1 cells (e), L929 cells (f) and RAW264.7 cells (g) were exposed to the indicated doses of XQ2 for 48h, the cell viability was measured by CCK8 assay. Data are representative of three independent experiments in (a-g). (Data are presented as mean ± SD, n = 3 independent samples in (a-g), **p < 0.01, ***p < 0.001, ****p < 0.0001 using one-way ANOVA with Dunnett’s post hoc test). […]
Square brackets hold non-standard residues; d marks the D form. Peptide text beside a SMILES is read from it.
observed.property: viability at 48 h, 1.88 µM (%)
Report only the number, with the unit % understood.

Enquiry: Could you share which viability at 48 h, 1.88 µM value was measured for CC(C)C[C@@H]1NC(=O)[C@H](CCCNC(=N)N)NC(=O)[C@H](C(C)C)NC(=O)[C@@H]2CCCN2C(=O)[C@@H](Cc2ccccc2)NC(=O)[C@H](CC(C)C)NC(=O)[C@H](CCCNC(=N)N)NC(=O)[C@H](C(C)C)NC(=O)[C@H](C)NC(=O)[C@@H](Cc2ccccc2)NC1=O [XQ2, Cyclo (LfAVRLfPVR)] (cyclo(L[dF]AVRL[dF]PVR)) ?
Return: 85.4

---

Target: recombinant human cGAS enzyme (hcGAS-ΔN, residues 147–522) (Homo sapiens, UniProt Q8N884)
Construct: N-terminally truncated human cGAS (hcGAS-ΔN, residues 147–522); 6xHis-SUMO (N, cleaved yes); made in house; host or cells: Escherichia coli BL21 (DE3)
Sequence (Q8N884 147-522, stated change not applied): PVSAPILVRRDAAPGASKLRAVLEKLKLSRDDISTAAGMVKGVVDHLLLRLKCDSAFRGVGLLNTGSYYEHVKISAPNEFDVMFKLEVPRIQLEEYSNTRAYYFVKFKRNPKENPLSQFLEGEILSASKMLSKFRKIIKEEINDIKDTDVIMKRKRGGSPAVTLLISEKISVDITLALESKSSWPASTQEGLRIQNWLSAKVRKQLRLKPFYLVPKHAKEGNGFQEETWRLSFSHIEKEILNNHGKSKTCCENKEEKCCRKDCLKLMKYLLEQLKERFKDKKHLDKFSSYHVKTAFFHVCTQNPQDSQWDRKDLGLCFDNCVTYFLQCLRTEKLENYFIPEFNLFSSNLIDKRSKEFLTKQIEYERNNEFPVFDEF
Test: RNA-based fluorescent biosensor assay of cGAS activity (2',3'-cGAMP formation), in vitro screening
Assay type: biochemical
Settings: peptides screened at 20 μM; Supplementary Table 1 / Fig. S5b; read-out: Inhibition %
Square brackets hold non-standard residues; d marks the D form. Peptide text beside a SMILES is read from it.
observed.property: inhibition at 20 µM (%)
Report only the number, with the unit % understood.

Study these solved cases before continuing.
INSERT INTO results (molecule, recorded_result) VALUES
  ('CC(C)C[C@@H]1NC(=O)[C@H](C)NC(=O)[C@H](C(C)C)NC(=O)[C@@H]2CCCN2C(=O)[C@@H](Cc2ccccc2)NC(=O)[C@H](CC(C)C)NC(=O)[C@H](CCCNC(=N)N)NC(=O)[C@H](C(C)C)NC(=O)[C@@H]2CCCN2C(=O)[C@@H](CCCNC(=N)N)NC1=O [XQ56, Cyclo (LrPVRLfPVA)] (cyclo(AL[dR]PVRL[dF]PV))', 0),
  ('CC(C)C[C@@H]1NC(=O)[C@H](CCCNC(=N)N)NC(=O)[C@H](C(C)C)NC(=O)[C@@H]2CCCN2C(=O)[C@@H](Cc2ccccc2)NC(=O)[C@H](C)NC(=O)[C@H](CCCNC(=N)N)NC(=O)[C@H](C(C)C)NC(=O)[C@@H]2CCCN2C(=O)[C@@H](C)NC1=O [XQ21, Cyclo (AfPVRLaPVR)] (cyclo(A[dF]PVRL[dA]PVR))', 0);

Now take the following molecule into account.
Enquiry: Could you share which inhibition at 20 µM value was measured for CC(C)C[C@@H]1NC(=O)[C@H](C)NC(=O)[C@H](CCCNC(=N)N)NC(=O)[C@@H]2CCCN2C(=O)[C@@H](Cc2ccccc2)NC(=O)[C@H](CC(C)C)NC(=O)[C@H](CCCNC(=N)N)NC(=O)[C@H](C(C)C)NC(=O)[C@@H]2CCCN2C(=O)[C@@H](Cc2ccccc2)NC1=O [XQ43, Cyclo (LfPRALfPVR)] (cyclo(AL[dF]PVRL[dF]PR)) ?
Return: 23

---

Target: recombinant human cGAS enzyme (hcGAS-ΔN, residues 147–522) (Homo sapiens)
Construct: N-terminally truncated human cGAS (hcGAS-ΔN, residues 147–522); 6xHis-SUMO (N, cleaved yes); made in house; host or cells: Escherichia coli BL21 (DE3)
Test: RNA-based fluorescent biosensor assay of cGAS activity (2',3'-cGAMP formation), in vitro screening
Type: biochemical
Settings: peptides screened at 20 μM; Supplementary Table 1 / Fig. S5b; 20 µM
Square brackets hold non-standard residues; d marks the D form. Peptide text beside a SMILES is read from it.
observed.property: Inhibition %

Enquiry: Could you share which Inhibition % value was measured for CC(C)C[C@@H]1NC(=O)[C@H](CCCNC(=N)N)NC(=O)[C@H](C(C)C)NC(=O)[C@@H]2CCCN2C(=O)[C@@H](Cc2ccccc2)NC(=O)[C@H](CC(C)C)NC(=O)[C@H](CCCNC(=N)N)NC(=O)[C@H](C(C)C)NC(=O)[C@H](C)NC(=O)[C@@H](Cc2ccccc2)NC1=O [XQ2, Cyclo (LfAVRLfPVR)] (cyclo(L[dF]AVRL[dF]PVR)) ?
Return: ≥ 40%

---

Entries and their remaining activity at 20 µM
Biological target: recombinant human cGAS enzyme (hcGAS-ΔN, residues 147–522) (Homo sapiens)
Construct: N-terminally truncated human cGAS (hcGAS-ΔN, residues 147–522); 6xHis-SUMO (N, cleaved yes); made in house; host or cells: Escherichia coli BL21 (DE3)
Assay: RNA-based fluorescent biosensor assay of cGAS activity (2',3'-cGAMP formation), in vitro screening
Assay type: biochemical
Settings: 20 μM; replicate values; read-out: Remaining activity (%), Fig. 1a source data
Square brackets hold non-standard residues; d marks the D form. Peptide text beside a SMILES is read from it.

Enquiry: Could you share which remaining activity at 20 µM value was measured for CC(C)C[C@@H]1NC(=O)[C@H](CCCNC(=N)N)NC(=O)[C@H]([C@@H](C)O)NC(=O)[C@@H]2CCCN2C(=O)[C@@H](Cc2ccccc2)NC(=O)[C@H](CC(C)C)NC(=O)[C@H](CCCNC(=N)N)NC(=O)[C@H](C(C)C)NC(=O)[C@@H]2CCCN2C(=O)[C@@H](Cc2ccccc2)NC1=O [XQ42, Cyclo (LfPTRLfPVR)] (cyclo(L[dF]PTRL[dF]PVR)) ?
Return: 86%

Enquiry: Could you share which remaining activity at 20 µM value was measured for CC(C)C[C@H]1NC(=O)[C@H](Cc2ccccc2)NC(=O)[C@H]2CCCN2C(=O)[C@@H]([C@H](C)O)NC(=O)[C@@H](CCCNC(=N)N)NC(=O)[C@@H](CC(C)C)NC(=O)[C@H](Cc2ccccc2)NC(=O)[C@H]2CCCN2C(=O)[C@@H](C(C)C)NC(=O)[C@@H](CCCNC(=N)N)NC1=O [XQ23, Cyclo (tpFlrvpFlr)] (cyclo(F[dL][dR][dT][dP]F[dL][dR][dV][dP])) ?
Return: 103%

Enquiry: Could you share which remaining activity at 20 µM value was measured for CC(C)C[C@@H]1NC(=O)[C@H](CCCNC(=N)N)NC(=O)[C@H]([C@@H](C)O)NC(=O)[C@@H]2CCCN2C(=O)[C@@H](Cc2ccccc2)NC(=O)[C@H](Cc2ccccc2)NC(=O)[C@H](CCCNC(=N)N)NC(=O)[C@H]([C@@H](C)O)NC(=O)[C@@H]2CCCN2C(=O)[C@@H](Cc2ccccc2)NC1=O [XQ29, Cyclo (FfPTRLfPTR)] (cyclo(F[dF]PTRL[dF]PTR)) ?
Return: 92.7%

---

Target: recombinant human cGAS enzyme (hcGAS-ΔN, residues 147–522) (Homo sapiens)
Construct: N-terminally truncated human cGAS (hcGAS-ΔN, residues 147–522); 6xHis-SUMO (N, cleaved yes); made in house; host or cells: Escherichia coli BL21 (DE3)
Test: RNA-based fluorescent biosensor assay of cGAS activity (2',3'-cGAMP formation), in vitro screening
Type: biochemical
Settings: peptides screened at 20 μM; Supplementary Table 1 / Fig. S5b; read-out: Inhibition %
Square brackets hold non-standard residues; d marks the D form. Peptide text beside a SMILES is read from it. Hyp = O=C(O)[C@@H]1C[C@@H](O)CN1
Entries and their inhibition at 20 µM

Study these solved cases before continuing.
INSERT INTO measurements (compound, observed_property, recorded_result) VALUES
  ('CC(C)C[C@@H]1NC(=O)[C@H](C)NC(=O)[C@H](C(C)C)NC(=O)[C@@H]2CCCN2C(=O)[C@@H](Cc2ccccc2)NC(=O)[C@H](CCCNC(=N)N)NC(=O)[C@H](CCCNC(=N)N)NC(=O)[C@H](C(C)C)NC(=O)[C@@H]2CCCN2C(=O)[C@@H](Cc2ccccc2)NC1=O [XQ44, Cyclo (RfPVALfPVR)] (cyclo(AL[dF]PVRR[dF]PV))', 'inhibition at 20 µM', '0%'),
  ('CC(C)C[C@@H]1NC(=O)[C@H](CC(=O)O)NC(=O)[C@H](C(C)C)NC(=O)[C@@H]2CCCN2C(=O)[C@@H](Cc2ccccc2)NC(=O)[C@H](C)NC(=O)[C@H](CCCNC(=N)N)NC(=O)[C@H](C)NC(=O)[C@@H]2CCCN2C(=O)[C@@H](Cc2ccccc2)NC1=O [XQ58, Cyclo (AfPVDLfPAR)] (cyclo(ARA[dF]PVDL[dF]P))', 'inhibition at 20 µM', '0%'),
  ('CC(C)C[C@@H]1NC(=O)[C@H](CCCNC(=N)N)NC(=O)[C@H]([C@@H](C)O)NC(=O)[C@@H]2C[C@@H](O)CN2C(=O)[C@@H](Cc2ccccc2)NC(=O)[C@H](CC(C)C)NC(=O)[C@H](CCCNC(=N)N)NC(=O)[C@H]([C@@H](C)O)NC(=O)[C@@H]2CCCN2C(=O)[C@@H](Cc2ccccc2)NC1=O [XQ33, Cyclo (Lf(Hyp)TRLfPTR)] (cyclo([Hyp]TRL[dF]PTRL[dF]))', 'inhibition at 20 µM', '2%'),
  ('CC(C)C[C@@H]1NC(=O)[C@H](CCCNC(=N)N)NC(=O)[C@H](C(C)C)NC(=O)[C@@H]2CCCN2C(=O)[C@@H](Cc2ccccc2)NC(=O)[C@H](CC(C)C)NC(=O)[C@H]([C@@H](C)O)NC(=O)[C@@H]2CCCN2C(=O)[C@@H](Cc2ccccc2)NC(=O)[C@H](CC(=O)O)NC1=O [XQ63, Cyclo (LDfPTLfPVR)] (cyclo(D[dF]PTL[dF]PVRL))', 'inhibition at 20 µM', '0%'),
  ('CC(C)C[C@@H]1NC(=O)[C@H](CCCNC(=N)N)NC(=O)[C@H]([C@@H](C)O)NC(=O)[C@@H]2CCCN2C(=O)[C@@H](Cc2ccccc2)NC(=O)[C@H](C)NC(=O)[C@H](CCCNC(=N)N)NC(=O)[C@H]([C@@H](C)O)NC(=O)[C@@H]2CCCN2C(=O)[C@@H](Cc2ccccc2)NC1=O [XQ37, Cyclo (AfPTRLfPTR)] (cyclo(A[dF]PTRL[dF]PTR))', 'inhibition at 20 µM', '18%');

Now take the following compound into account.
Enquiry: Could you share which inhibition at 20 µM value was measured for CC(C)C[C@@H]1NC(=O)[C@H](CCCNC(=N)N)NC(=O)[C@H]([C@@H](C)O)NC(=O)[C@@H]2CCCN2C(=O)[C@@H](Cc2ccccc2)NC(=O)[C@H](Cc2ccccc2)NC(=O)[C@H](CCCNC(=N)N)NC(=O)[C@H]([C@@H](C)O)NC(=O)[C@@H]2CCCN2C(=O)[C@@H](Cc2ccccc2)NC1=O [XQ29, Cyclo (FfPTRLfPTR)] (cyclo(F[dF]PTRL[dF]PTR)) ?
Return: 7%
